Target: HLA-A*02:03
Test: IEDB peptide-MHC binding, purified MHC/competitive/fluorescence; filed as Kd, often an IC50 or EC50 that approximates it; bounds were set here for any values at or beyond the usual limits of such assays
Conditions: source organism: Cryptosporidium parvum Iowa II

Sequence record | Kd
DLAQDPMLI | ≥ 20 µM

* * *

Each entry below lists one item and its recorded pKd value.
Target: HLA-B*40:01
Assay: IEDB peptide-MHC binding, purified MHC/competitive/radioactivity; filed as Kd, often an IC50 or EC50 that approximates it; bounds were set here for any values at or beyond the usual limits of such assays
Details: source organism: Dengue virus 2 Jamaica/1409/1983
pKd: −log10 of the molar value.

Sequence record | pKd
VEMGEAAGIF | 5.94
WELVDRERNL | 6.94
LETLLLLTLL | 7.00

* * *

Target: HLA-A*26:01
Experiment: IEDB peptide-MHC binding, purified MHC/direct/fluorescence; filed as Kd, often an IC50 or EC50 that approximates it; bounds were set here for any values at or beyond the usual limits of such assays
Conditions: source organism: Escherichia coli O157:H7

Sequence record | Target | Kd
LPEFERRTL | HLA-A*26:01 | ≥ 20 µM
AHGWSTFYL | HLA-A*26:01 | ≥ 20 µM

* * *

Biological target: HLA-A*23:01
Assay: IEDB peptide-MHC binding, purified MHC/competitive/radioactivity; filed as Kd, often an IC50 or EC50 that approximates it; bounds were set here for any values at or beyond the usual limits of such assays
Conditions: source organism: Lymphocytic choriomeningitis virus (strain Armstrong)

Sequence record | Kd
VCLSGEGWPY | ≥ 70 µM
ICISLSNSF | ≥ 77.7 µM

* * *

Target: HLA-B*46:01
Assay: IEDB peptide-MHC binding, purified MHC/direct/fluorescence; filed as Kd, often an IC50 or EC50 that approximates it; bounds were set here for any values at or beyond the usual limits of such assays
Conditions: source organism: Cowpox virus

Sequence record | Kd
YKDANISMY | ≥ 20 µM

* * *

Molecular target: HLA-A*02:19
Assay: IEDB peptide-MHC binding, purified MHC/direct/fluorescence; filed as Kd, often an IC50 or EC50 that approximates it; bounds were set here for any values at or beyond the usual limits of such assays
Conditions: source organism: Limestone Canyon virus

Sequence record | Kd
FRYKSRCYV | ≥ 20 µM

* * *

Biological target: HLA-A*32:07
Assay: IEDB peptide-MHC binding, purified MHC/competitive/fluorescence; filed as Kd, often an IC50 or EC50 that approximates it; bounds were set here for any values at or beyond the usual limits of such assays
Conditions: source organism: Influenza A virus (A/Fort Monmouth/1/1947-mouse adapted(H1N1))
pKd: −log10 of the molar value.
Measured metric: pKd

Sequence record | Measured metric | Measured value
GTFEFTSFF | pKd | 7.62

* * *

Biological target: HLA-A*26:01
Assay: IEDB peptide-MHC binding, purified MHC/direct/fluorescence; filed as Kd, often an IC50 or EC50 that approximates it; bounds were set here for any values at or beyond the usual limits of such assays
Settings: source organism: Bacillus anthracis str. Sterne
pKd: −log10 of the molar value.

Sequence record | Target | pKd
TTYVYTLPV | HLA-A*26:01 | ≤ 4.70

* * *

Biological target: HLA-A*69:01
Assay: IEDB peptide-MHC binding, purified MHC/competitive/fluorescence; filed as Kd, often an IC50 or EC50 that approximates it; bounds were set here for any values at or beyond the usual limits of such assays
Conditions: source organism: Desulfatibacillum alkenivorans AK-01

Sequence record | Target | Kd
KLGKAGYVV | HLA-A*69:01 | ≥ 20 µM
